STUDY_TARGET: GABA A receptor alpha-2/beta-2/gamma-2 (Homo sapiens) (UniProt P47870+P18507+P47869)
ASSAY_METHOD_TEXT: Maximal efficacy for GABA-evoked chloride currents mediated by human Gamma-aminobutyric acid GABA-A receptor alpha2-beta2-gamma2L expressed in Xenopus oocytes
Type: cell-based
MEASUREMENT_SETUP: Oocyte
Mark fulfilled for Maximal efficacy under 500%, not fulfilled if at or over.

Below are worked cases with known answers.
CCCC(C)C1(CC)C(=O)NC(=O)NC1=O (stereo not given) [PENTOBARBITAL]: fulfilled
CCOC(=O)c1cn(-c2ccc(Cl)c(Cl)c2)c(-c2ccc(Cl)cc2)n1: not fulfilled
O=C(O)c1cn(-c2ccc(Cl)cc2Cl)c(-c2ccc(Cl)cc2)n1: fulfilled
CCCOC(=O)c1cn(-c2ccc(Cl)cc2Cl)c(-c2ccc(Br)cc2)n1: not fulfilled
COC(=O)c1cn(-c2ccc(Cl)cc2Cl)c(-c2ccc(Br)cc2)n1: fulfilled

Given the entry CCOC(=O)c1cn(-c2ccccc2)c(-c2ccc(C)cc2)n1 , would its reported Maximal efficacy be below 500%?
not fulfilled

Given the entry CN1CCN(C(=O)c2cn(-c3ccc(Cl)cc3Cl)c(-c3ccc(Cl)cc3)n2)CC1 , would its reported Maximal efficacy be below 500%?
fulfilled

Given the entry CCOC(=O)c1cn(-c2ccc(Cl)cc2Cl)c(-c2ccc(I)cc2)n1 , would its reported Maximal efficacy be below 500%?
fulfilled

Given the entry CCOC(=O)c1cn(-c2ccccc2)c(-c2ccc(OC)cc2)n1 , would its reported Maximal efficacy be below 500%?
fulfilled

---

STUDY_TARGET: GABA A receptor alpha-2/beta-2/gamma-2 (Homo sapiens, UniProt P18507+P47869+P47870)
Sequence (P47870 whole entry): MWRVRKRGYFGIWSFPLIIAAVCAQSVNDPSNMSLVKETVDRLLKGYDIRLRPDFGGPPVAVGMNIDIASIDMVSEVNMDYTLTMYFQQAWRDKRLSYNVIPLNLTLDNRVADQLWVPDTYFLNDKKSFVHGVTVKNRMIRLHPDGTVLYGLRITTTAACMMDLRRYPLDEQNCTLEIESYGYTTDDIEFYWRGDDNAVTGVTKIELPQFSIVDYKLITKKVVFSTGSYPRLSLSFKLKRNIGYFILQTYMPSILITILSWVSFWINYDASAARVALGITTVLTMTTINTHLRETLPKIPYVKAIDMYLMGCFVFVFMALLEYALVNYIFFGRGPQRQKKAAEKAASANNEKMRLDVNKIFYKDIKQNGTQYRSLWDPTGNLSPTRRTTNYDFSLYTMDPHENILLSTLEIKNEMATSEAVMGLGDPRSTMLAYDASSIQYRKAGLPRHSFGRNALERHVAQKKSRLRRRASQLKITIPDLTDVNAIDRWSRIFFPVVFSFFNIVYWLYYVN
Sequence (P18507 whole entry): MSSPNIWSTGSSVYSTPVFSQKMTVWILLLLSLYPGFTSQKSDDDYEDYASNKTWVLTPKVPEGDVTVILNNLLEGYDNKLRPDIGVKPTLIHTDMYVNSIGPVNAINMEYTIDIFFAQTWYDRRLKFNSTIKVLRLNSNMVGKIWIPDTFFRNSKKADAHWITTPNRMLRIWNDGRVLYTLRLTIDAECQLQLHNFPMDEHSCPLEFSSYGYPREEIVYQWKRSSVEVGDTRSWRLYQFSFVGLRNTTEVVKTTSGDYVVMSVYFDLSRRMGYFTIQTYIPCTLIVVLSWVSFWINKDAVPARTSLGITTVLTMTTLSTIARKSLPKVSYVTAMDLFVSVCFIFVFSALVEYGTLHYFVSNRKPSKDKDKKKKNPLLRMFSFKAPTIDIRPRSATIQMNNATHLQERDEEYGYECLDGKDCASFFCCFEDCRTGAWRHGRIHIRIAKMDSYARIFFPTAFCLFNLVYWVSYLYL
Sequence (P47869 whole entry): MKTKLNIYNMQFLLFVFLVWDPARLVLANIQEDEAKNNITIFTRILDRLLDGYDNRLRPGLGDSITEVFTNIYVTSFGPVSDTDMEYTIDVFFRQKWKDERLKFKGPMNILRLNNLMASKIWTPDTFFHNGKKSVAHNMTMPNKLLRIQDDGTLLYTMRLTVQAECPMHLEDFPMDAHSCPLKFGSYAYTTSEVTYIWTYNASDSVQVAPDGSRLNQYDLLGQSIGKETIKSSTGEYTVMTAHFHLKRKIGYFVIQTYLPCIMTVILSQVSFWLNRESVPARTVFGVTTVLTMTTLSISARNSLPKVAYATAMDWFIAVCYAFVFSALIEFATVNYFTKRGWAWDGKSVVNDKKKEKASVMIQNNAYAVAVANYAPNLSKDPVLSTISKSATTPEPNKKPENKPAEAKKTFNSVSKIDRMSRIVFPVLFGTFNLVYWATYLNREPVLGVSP
ASSAY_METHOD_TEXT: Effective concentration against GABA-evoked chloride currents mediated by human Gamma-aminobutyric acid GABA-A receptor alpha2-beta2-gamma2L expressed in Xenopus oocytes
Mark class 1 for EC50 under 2 µM, class 0 if at or over.

CCOC(=O)c1cn(-c2ccc(F)cc2)c(-c2ccc(F)cc2)n1: class 0

Then there is this compound:
Given the entry CCOC(=O)c1cn(-c2ccc(Cl)cc2Cl)c(-c2ccc(OC)cc2)n1 , would its reported EC50 be below 2 µM?
class 1
